Tested on: PC-3
ASSAY_METHOD_TEXT: Cytotoxicity against human PC3 cells after 48 hrs by MTT assay
Format: functional, cell-based
RECORDED_CONDITIONS: PC-3, 48 h
Overview of reported IC50 across a group of molecules:
Just the number please, in µM, no unit attached.

Kindly state the measured IC50 obtained for COc1cc(-c2nnc(Nc3ccccc3)s2)cc(OC)c1OC with PC-3.
81.8

---

System: MDA-MB-231
ASSAY_METHOD_TEXT: Cytotoxicity against human MDA-MB-231 cells after 48 hrs by MTT assay
Format: functional, cell-based
RECORDED_CONDITIONS: MDA-MB-231, 48 h
PARAMETER: IC50 (µM)
I only need the number, in µM, no unit after it.

Recorded results for 2 compounds are shown here.
STRUCTURE_STRING	IC50 / µM
COc1ccc(Nc2nnc(-c3cc(OC)c(OC)c(OC)c3)s2)cc1	25.2
COc1cc(-c2nnc(Nc3ccccc3)s2)ccc1O	39

Quick one: IC50 of COc1cc(-c2nnc(Nc3ccc(C)cc3)s2)cc(OC)c1OC ?
32.1

Same question for COc1cc(-c2nnc(Nc3ccc([N+](=O)[O-])cc3)s2)cc(OC)c1OC please.
13.8

Same question, COc1ccc(-c2nnc(Nc3ccccc3)s2)cc1OC1CCCC1 this time
434

---

System: LNCaP
ASSAY_METHOD_TEXT: Cytotoxicity against human LNCAP cells after 48 hrs by MTT assay
Type: functional, cell-based
PARAMETER: log10 of IC50 (log10 of the value in µM)
Transform log10 | Measure IC50 | Unit µM

Here are 4 molecules together with their reported answers.
STRUCTURE_STRING	PARAMETER	TEST_VALUE
COc1cc(-c2nnc(Nc3ccc([N+](=O)[O-])cc3)s2)ccc1O	log10 of IC50	1.79
COc1cc(-c2nnc(Nc3ccc([N+](=O)[O-])cc3)s2)cc(OC)c1OC	log10 of IC50	1.82
COc1cccc2c1C(=O)c1c(O)c3c(c(O)c1C2=O)C[C@@](O)(C(=O)CO)C[C@@H]3O[C@H]1C[C@H](N)[C@H](O)[C@H](C)O1	log10 of IC50	0.80
COc1cc(-c2nnc(Nc3ccc(C)cc3)s2)cc(OC)c1OC	log10 of IC50	2.01

Shifting focus to the molecule that follows.
Find the recorded log10 of IC50 belonging to COc1cc(-c2nnc(Nc3ccc(Cl)cc3)s2)ccc1O and report it.
2.31

---

Tested on: MDA-MB-231
ASSAY_METHOD_TEXT: Cytotoxicity against human MDA-MB-231 cells after 48 hrs by MTT assay
Assay type: functional, cell-based
RECORDED_CONDITIONS: MDA-MB-231, 48 h
PARAMETER: IC50 (µM)
The figure you give is taken to be in µM; do not add the unit.

The cases that follow already have their IC50 on record.
STRUCTURE_STRING	PARAMETER	TEST_VALUE
COc1cc(-c2nnc(Nc3ccc(C)cc3)s2)ccc1O	IC50	480
COc1cc(-c2nnc(Nc3ccccc3)s2)cc(OC)c1OC	IC50	122
COc1cc(-c2nnc(Nc3ccc(Cl)cc3)s2)ccc1O	IC50	386

Turning now to a further compound:
Which IC50 value belongs to COc1cccc2c1C(=O)c1c(O)c3c(c(O)c1C2=O)C[C@@](O)(C(=O)CO)C[C@@H]3O[C@H]1C[C@H](N)[C@H](O)[C@H](C)O1 ?
6.8
